Test system: SF-539 CNS
TEST DESCRIPTION: NCI tumour cell line growth inhibition, 48 h
MEASUREMENT LABEL: TGI (µM)
API: value field is a number in µM; no unit string.

The following molecules have reported results that may help.
- CHEMICAL SMILES: "O=c1[nH]c(=S)[nH]c(O)c1/C=C1\\C=CC=N1"
  MEASUREMENT LABEL: "TGI"
  UNIT SPEC: "µM"
  REPORTED: 40.5
- CHEMICAL SMILES: "Cn1c(O)c(C(=O)Nc2ccc([N+](=O)[O-])cc2)c(=O)n(C)c1=S"
  MEASUREMENT LABEL: "TGI"
  UNIT SPEC: "µM"
  REPORTED: 4.2
- CHEMICAL SMILES: "Cc1cc(C)nc(NS(=O)(=O)c2ccc(NC(=O)c3cccc4cc5ccccc5nc34)cc2)n1"
  MEASUREMENT LABEL: "TGI"
  UNIT SPEC: "µM"
  REPORTED: 34

Please find the next molecule below.
Ask | Give the measured TGI for `COc1ccccc1-n1c(SCc2cc(OC)c(OC)c(OC)c2)nc2ccc(Cl)cc2c1=O`
Reply | 19.6
